Reference source for all entries: ChEMBL document CHEMBL3856193

- ASSAY NOTES: Growth inhibition of human HepG2 cells measured after 72 hrs by MTT assay
- Format: functional, cell-based
- TEST PARAMETERS: HepG2, 72 h
ATTRIBUTE MEASURED: IC50

chemical_smiles=COc1cc(/C=C\c2cccc3oc(=O)n(C)c23)cc(OC)c1OC attribute_measured=IC50 result="19 µM"
chemical_smiles=COc1ccc(/C=C\c2cccc3c2oc(=O)n3C)cc1OC attribute_measured=IC50 result="30.2 µM"
chemical_smiles=COc1cc(/C=C\c2ccc3oc(=O)n(C)c3c2)cc(OC)c1OC attribute_measured=IC50 result="39.7 µM"
chemical_smiles=COc1ccc(/C=C\c2ccc3c(c2)oc(=O)n3C)cc1OC attribute_measured=IC50 result="38.3 µM"

----------
- ASSAY NOTES: Cytostatic activity against human MCF10A cells assessed as cell survival up to 25 uM measured after 72 hrs by MTT assay relative to control
- Format: ADME, cell-based, MCF-10A
- TEST PARAMETERS: read-out: Survival
ATTRIBUTE MEASURED: viability at 72 h (%)

chemical_smiles=COc1cc(/C=C\c2ccc3c(c2)oc(=O)n3C)cc(OC)c1OC unit_label=% number=70

----------
- ASSAY NOTES: Growth inhibition of human EAhy926 cells measured after 72 hrs by MTT assay
- Type: functional, cell-based
- TEST PARAMETERS: EA.hy 926, 72 h
pIC50: −log10 of the molar value.
Cut-off 5 on pIC50, inclusive. At or above means MET; below means NOT MET.

chemical_smiles=COc1cc(/C=C\c2ccc3oc(=O)n(C)c3c2)cc(OC)c1OC group="NOT MET"
chemical_smiles=COc1cc(/C=C\c2cccc3oc(=O)n(C)c23)cc(OC)c1 group="NOT MET"
chemical_smiles=COc1ccc(/C=C\c2cccc3oc(=O)n(C)c23)cc1 group="NOT MET"
chemical_smiles=COc1ccc(/C=C\c2cc(OC)c(OC)c(OC)c2)cc1O group=MET

----------
- ASSAY NOTES: Growth inhibition of human EAhy926 cells measured after 72 hrs by MTT assay
- Type: functional, cell-based
- TEST PARAMETERS: EA.hy 926, 72 h
Parameter IC50: see the listing below.
ATTRIBUTE MEASURED: IC50

chemical_smiles=COc1ccc(/C=C\c2ccc3oc(=O)n(C)c3c2)cc1OC result="> 50 µM"
chemical_smiles=COc1ccc(/C=C\c2cccc3oc(=O)n(C)c23)cc1OC result="> 50 µM"
chemical_smiles=COc1cc(/C=C\c2ccc3c(c2)oc(=O)n3C)cc(OC)c1OC result="0.28 µM"
chemical_smiles=COc1ccc(/C=C\c2ccc3c(c2)oc(=O)n3C)cc1OC result="> 50 µM"
chemical_smiles=COc1ccc(/C=C\c2ccc3c(c2)oc(=O)n3C)cc1 result="> 50 µM"
chemical_smiles=COc1ccc(/C=C\c2cccc3c2oc(=O)n3C)cc1OC result="> 50 µM"
chemical_smiles=COc1cc(/C=C\c2cccc3oc(=O)n(C)c23)cc(OC)c1OC result="14.8 µM"
chemical_smiles=COc1ccc(/C=C\c2cccc3c2oc(=O)n3C)cc1 result="> 50 µM"
chemical_smiles=COc1ccc(/C=C\c2ccc3oc(=O)n(C)c3c2)cc1 result="15.1 µM"

----------
- ASSAY NOTES: Growth inhibition of human HepG2 cells measured after 72 hrs by MTT assay
- Type: functional, cell-based
- TEST PARAMETERS: HepG2, 72 h
ATTRIBUTE MEASURED: IC50 (µM)

chemical_smiles=COc1ccc(/C=C\c2ccc3oc(=O)n(C)c3c2)cc1 unit_label=µM result_modifier== number=48.1
chemical_smiles=COc1ccc(/C=C\c2cccc3oc(=O)n(C)c23)cc1 unit_label=µM result_modifier== number=16.1
chemical_smiles=COc1cc(/C=C\c2ccc3c(c2)oc(=O)n3C)cc(OC)c1OC unit_label=µM result_modifier== number=0.19
chemical_smiles=COc1ccc(/C=C\c2cc(OC)c(OC)c(OC)c2)cc1O unit_label=µM result_modifier== number=0.11
chemical_smiles=COc1cc(/C=C\c2cccc3oc(=O)n(C)c23)cc(OC)c1 unit_label=µM result_modifier== number=18
chemical_smiles=COc1ccc(/C=C\c2ccc3oc(=O)n(C)c3c2)cc1OC unit_label=µM result_modifier== number=42.1
chemical_smiles=COc1ccc(/C=C\c2ccc3c(c2)oc(=O)n3C)cc1 unit_label=µM result_modifier=> number=50
chemical_smiles=COc1ccc(/C=C\c2cccc3c2oc(=O)n3C)cc1 unit_label=µM result_modifier== number=47.2
chemical_smiles=COc1ccc(/C=C\c2cccc3oc(=O)n(C)c23)cc1OC unit_label=µM result_modifier=> number=50
chemical_smiles=COc1cc(/C=C\c2cccc3c2oc(=O)n3C)cc(OC)c1 unit_label=µM result_modifier== number=4.25
chemical_smiles=COc1cc(/C=C\c2cccc3c2oc(=O)n3C)cc(OC)c1OC unit_label=µM result_modifier== number=1.07

----------
- ASSAY NOTES: Cytostatic activity against human NHEK cells assessed as cell survival up to 25 uM measured after 72 hrs by MTT assay relative to control
- Assay type: ADME, cell-based
- TEST PARAMETERS: read-out: Survival
ATTRIBUTE MEASURED: viability at 72 h (%)

chemical_smiles=COc1ccc(/C=C\c2cc(OC)c(OC)c(OC)c2)cc1O unit_label=% number=40
